experiment: Study 206281: plasma PK of DRV, RTV and ETR with or without FTR; conditions: human, plasma, oral, 200 mg
MEASURED_METRIC: concentration at 12 h (ng/mL)
The answer is to be given in ng/mL; state only the numeric part.

**Q:** Fill in the blank: the reported concentration at 12 h of Cc1cc(C#N)cc(C)c1Oc1nc(Nc2ccc(C#N)cc2)nc(N)c1Br [ETR, reference compound] is ____.
**A:** 457

* * *

Experiment: Study 206281: plasma PK of DRV, RTV and ETR with or without FTR
Settings: human, plasma, oral, 200 mg
Protocol: Participants were randomly assigned to one of three cohorts per a computer-generated randomization scheme. • Cohort 1: Participants received FTR at 600 mg twice daily (BID) on days 1 to 4. […] Eligible participants were admitted to the clinical facility on day −1 of each study. […] Physical examinations, measurements of vital signs, 12-lead ECGs, and clinical laboratory evaluations were performed, and participants were closely monitored for AEs and SAEs, throughout both studies. […]
MEASURED_METRIC: Cmax (ng/mL)
The answer is to be given in ng/mL; state only the numeric part.

**Q:** Fill in the blank: the reported Cmax of Cc1cc(C#N)cc(C)c1Oc1nc(Nc2ccc(C#N)cc2)nc(N)c1Br [ETR, reference compound] is ____.
**A:** 846
